target: Cytochrome P450 2D6 (Homo sapiens) (UniProt P10635); assay: Cytochrome P450 family 2 subfamily D member 6 (CYP2D6) small molecule antagonists: luciferase biochemical (cell-free) qHTS assay (AID 1645840); settings: P450-Glo CYP2D6 enzyme, luciferin luminescence, 1 h; series mostly up to 57.4 µM; further: nearly all actives have a fitted effect of over 55% in size
Sequence (P10635 whole entry, looked up): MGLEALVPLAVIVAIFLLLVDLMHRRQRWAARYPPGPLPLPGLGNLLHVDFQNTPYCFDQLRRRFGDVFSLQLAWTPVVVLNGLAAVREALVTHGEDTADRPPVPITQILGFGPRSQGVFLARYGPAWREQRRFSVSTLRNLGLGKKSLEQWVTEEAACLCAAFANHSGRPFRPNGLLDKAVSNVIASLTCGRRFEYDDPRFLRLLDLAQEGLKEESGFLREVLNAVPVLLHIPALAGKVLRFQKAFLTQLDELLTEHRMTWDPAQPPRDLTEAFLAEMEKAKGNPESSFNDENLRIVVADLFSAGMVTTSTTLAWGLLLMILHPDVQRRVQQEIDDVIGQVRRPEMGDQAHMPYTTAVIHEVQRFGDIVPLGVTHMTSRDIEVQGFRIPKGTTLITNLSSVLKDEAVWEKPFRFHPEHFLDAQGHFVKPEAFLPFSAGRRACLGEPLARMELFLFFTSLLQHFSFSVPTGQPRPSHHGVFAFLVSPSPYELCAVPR
Results filed as inconclusive are left out. Calls of active or inactive are those of the source. The call rests on the fitted dose curve; in most records, active means well fitted inhibition curve with a large enough effect in the repeat runs; inconclusive means weak or mixed curves; inactive means flat fitted curve, though single readings scatter.
Possible outcomes: class 1 for active, class 0 for inactive

compound: COc1cc(C)c(C=CC(C)=CC=CC(C)=CC(=O)O)c(C)c1C
cat: class 0
//
compound: N[C@H]1CN(c2c(F)cc3c(=O)c(C(=O)O)cn(C4C[C@@H]4F)c3c2Cl)CC12CC2 (stereo partly drawn)
cat: class 0
//
compound: C#CCC(Cc1cnc2nc(N)nc(N)c2n1)c1ccc(C(=O)N[C@@H](CCC(=O)O)C(=O)O)cc1 (stereo partly drawn)
cat: class 0
//
compound: Cc1noc(-c2ccc(CSCCC(=O)O)cc2)c1NC(=O)OC(C)c1ccccc1Cl (stereo not drawn)
cat: class 0
//
compound: Oc1cc(-c2nc(-c3ccccc3)[nH]c2-c2ccncc2)ccc1Cl
cat: class 1
//
compound: COC[C@H](NC(=O)c1cnc(C)s1)C(=O)N[C@@H](COC)C(=O)N[C@@H](Cc1ccccc1)C(=O)[C@@]1(C)CO1
cat: class 0
//
compound: O=C(Nc1ccc(Oc2ccnc3[nH]ccc23)c(F)c1)c1cccn(-c2ccc(F)cc2)c1=O
cat: class 0
//
compound: CCCc1nc(C(C)(C)O)c(C(=O)O)n1Cc1ccc(-c2ccccc2-c2nn[nH]n2)cc1
cat: class 0

====

assay: Quantitative High-Throughput drug screen in 47 multiple myeloma cell lines against the NCATS MIPE library collection: INA6_PLB cell viability assay (AID 1918965; further: nearly all actives have a fitted effect of over 55% in size); conditions: INA6 myeloma viability, CellTiter-Glo ATP luminescence, 48 h; series mostly up to 45.8 µM
Results filed as inconclusive are left out. Activity calls are given as the source filed them. Calls come from the whole dose curve; as a rule, active = well fitted cell-killing curve with a large enough effect; inconclusive = small, poorly fitted or top-dose-only effect, or effect the other way; inactive = no such curve, though single readings can be large or run the other way.
Possible outcomes: active, inactive

smilesNotation: C[C@H](NCc1ccc2c(c1)nc(NC(=O)c1ccc(-c3cn[nH]c3)s1)n2CCc1ccccc1)C(C)(C)C
cat: active

smilesNotation: C[C@@H](NCc1cc2ccccc2[nH]1)c1cccc2ccccc12
cat: active

smilesNotation: NC(=O)Nc1cc(-c2ccc(CN3CCOCC3)cc2)sc1C(N)=O
cat: active

smilesNotation: Cn1c(Nc2ccc(C(F)(F)F)cc2)nc2cc(Oc3ccnc(-c4ncc(C(F)(F)F)[nH]4)c3)ccc21
cat: active

smilesNotation: COC1=C2C[C@@H](C)C[C@H](OC)[C@@H](O)[C@@H](C)C=C(C)[C@H](OC(N)=O)[C@@H](OC)C=CC=C(C)C(=O)NC(=CC1=O)C2=O
cat: active

smilesNotation: CNC(=O)c1cccc(-c2ccc3c(N4CCOC[C@H]4C)nc(N4CCOC[C@H]4C)nc3n2)c1
cat: active

smilesNotation: c1cc(CN2CCCNCCNCCCNCC2)ccc1CN1CCCNCCNCCCNCC1
cat: inactive

smilesNotation: CCC(C=C[C@@H]1OC(=O)C=C[C@H]1C)=C[C@H](C)CC=CC(C)=C[C@@H](C)C(=O)[C@@H](C)[C@H](O)[C@@H](C)CC(C)=CC(=O)O
cat: active

smilesNotation: CCCNS(=O)(=O)Nc1ncnc(OCCOc2ncc(Br)cn2)c1-c1ccc(Br)cc1
cat: inactive

smilesNotation: COc1cc2ncnc(Nc3cccc(Br)c3)c2cc1OC
cat: active

smilesNotation: C=C(C)[C@@H]1CC[C@]2(C(=O)O)CC[C@]3(C)[C@H](CC[C@@H]4[C@@]5(C)CC[C@H](O)C(C)(C)[C@@H]5CC[C@]43C)[C@@H]12
cat: inactive

smilesNotation: COC(=O)[C@@H]1[C@H]2C[C@@H]3c4[nH]c5ccccc5c4CCN3C[C@@H]2CC[C@@H]1O
cat: inactive

smilesNotation: CN(C)CC[C@H](c1ccc(Cl)cc1)c1ccccn1
cat: inactive

smilesNotation: CCCCCCCCCCCCc1ccc(S(=O)(=O)Nc2nncs2)cc1
cat: inactive

====

assay: qHTS of pediatric cancer cell lines to identify multiple opportunities for drug repurposing: Confirmatory screen for NB1643 cells (AID 1347109); conditions: NB1643 neuroblastoma cell viability; series mostly up to 45.9 µM; further: nearly all actives have a fitted effect of over 45% in size
Records with an inconclusive call do not appear. Calls of active or inactive are those of the source. Calls follow the shape of the dose curve; as a rule, active = well fitted cell-killing curve with a large enough effect; inconclusive = small, poorly fitted or top-dose-only effect, or effect the other way; inactive = no such curve, though single readings can be large or run the other way. Residues, ends and D or L forms follow the SMILES beside them. *: point of attachment. Cbz = O=C(OCc1ccccc1)*
Possible outcomes: active, inactive

molecule: CC[C@]12C=CCN3CC[C@@]4(c5cc([C@@]6(C(=O)OC)C[C@H]7C[C@@H](C(C)(F)F)CN(Cc8c6[nH]c6ccccc86)C7)c(OC)cc5N(C)[C@H]4[C@@](O)(C(=O)OC)[C@H]1OC(C)=O)[C@@H]32
cat: inactive
//
molecule: Cc1ccc([N+](=O)[O-])cc1S(=O)(=O)N(C)N=Cc1cnc2ccc(Br)cn12
cat: active
//
molecule: COc1cccc2c1C(=O)c1c(O)c3c(c(O)c1C2=O)C[C@@](O)(C(=O)CO)C[C@@H]3O[C@H]1C[C@H](N)[C@H](OC2CCCCO2)[C@H](C)O1 (stereo partly drawn)
cat: active
//
molecule: CCOC(=O)N1CCN([N+]([O-])=NOc2ccc([N+](=O)[O-])cc2C#N)CC1
cat: active
//
molecule: COc1cccc2c1C(=O)c1c(O)c3c(c(O)c1C2=O)C[C@@](O)(C(=O)CO)C[C@H]3O[C@H]1C[C@H](N)[C@H](O)[C@H](C)O1
cat: active
//
molecule: CCN(CC)CCNC(=O)c1c(C)[nH]c(C=C2C(=O)Nc3ccc(F)cc32)c1C
cat: active
//
molecule: Cn1c(Nc2ccc(C(F)(F)F)cc2)nc2cc(Oc3ccnc(-c4ncc(C(F)(F)F)[nH]4)c3)ccc21
cat: active
//
molecule: C=CC(=O)Nc1cccc(Nc2nc(NC3CCC(N(C)C)CC3)nc3c2ncn3C(C)C)c1 (stereo not drawn)
cat: active
//
molecule: NC(=O)Nc1cc(-c2ccc(CN3CCOCC3)cc2)sc1C(N)=O
cat: active
//
molecule: O=C(Nc1cc2cc[nH]c2cn1)c1ccccc1
cat: active
//
molecule: CCCCC(=O)O[C@]1(C(=O)CO)[C@@H](C)C[C@H]2[C@@H]3CCC4=CC(=O)C=C[C@]4(C)[C@@]3(F)[C@@H](O)C[C@@]21C
cat: inactive
//
molecule: O=C1c2c(O)cccc2[C@@H]([C@@H]2O[C@H](CO)[C@@H](O)[C@H](O)[C@H]2O)c2cc(CO)cc(O)c21
cat: inactive
//
molecule: C=C1C(=CC=C2CCC[C@]3(C)[C@@H]([C@H](C)CCCC(C)(C)O)CC[C@@H]23)C[C@@H](O)C[C@@H]1O
cat: inactive
//
molecule: CC(C)C[C@@H](C=O)NC(=O)[C@H](CC(C)C)NC(=O)[C@H](CC(C)C)NC(=O)OCc1ccccc1 (Cbz-Leu-Leu-Leu-aldehyde)
cat: active
//
molecule: COC(=O)[C@@H]1[C@H]2C[C@@H]3c4[nH]c5ccccc5c4CCN3C[C@@H]2CC[C@@H]1O
cat: inactive
//
molecule: C[C@@]12C(=O)OC(=O)[C@@]1(C)C1CCC2O1
cat: active
//
molecule: COc1ccc2c(c1OC)C(=O)OC2[C@H]1c2c(cc3c(c2OC)OCO3)CCN1C (stereo partly drawn)
cat: inactive
//
molecule: Cc1cnc(Nc2ccc(N3CCN(C)CC3)cc2)nc1Nc1cccc(S(=O)(=O)NC(C)(C)C)c1
cat: active

====

test: qHTS Screen of the MIPE 4.0 Collection Against Ewings Sarcoma (TC32) (AID 1259256); details: TC32 Ewing sarcoma viability, CellTiter-Glo, 48 h; series mostly up to 45.8 µM; further: nearly all actives have a fitted effect of over 45% in size
Records with an inconclusive call do not appear. Calls of active or inactive are those of the source. Calls follow the shape of the dose curve; as a rule, active = well fitted inhibition curve with a large enough effect; inconclusive = small, poorly fitted or top-dose-only effect; inactive = no such curve, though single readings can be large or run the other way. Residues, ends and D or L forms follow the SMILES beside them. *: point of attachment. Cbz = O=C(OCc1ccccc1)*
Possible outcomes: active, inactive

molecule: OCCNC1CCCc2c1[nH]c1ccc(-c3ccccc3)cc21 (configuration not stated)
cat: active

molecule: OCC(O)C(O)C(O)CO (configuration not stated)
cat: inactive

molecule: CC(C)C[C@@H](C=O)NC(=O)[C@H](CC(C)C)NC(=O)[C@H](CC(C)C)NC(=O)OCc1ccccc1 (Cbz-Leu-Leu-Leu-aldehyde)
cat: active

molecule: Nc1ccn(C[C@@H](CO)OCP(=O)(O)O)c(=O)n1
cat: inactive

molecule: CC(=O)N[C@@H]1[C@H](O[C@@H]2c3ccc(c(Cl)c3)Oc3cc4cc(c3O[C@H]3O[C@H](CO)[C@@H](O)[C@H](O)[C@H]3NC(=O)CCCCCCCC(C)C)Oc3ccc(cc3Cl)C[C@H]3NC(=O)[C@H](N)c5ccc(O)c(c5)Oc5cc(O)cc(c5)[C@H](NC3=O)C(=O)N[C@H]4C(=O)N[C@H]3C(=O)N[C@@H]2C(=O)N[C@@H](C(=O)O)c2cc(O)cc(O[C@H]4O[C@H](CO)[C@@H](O)[C@H](O)[C@H]4O)c2-c2cc3ccc2O)O[C@H](CO)[C@@H](O)[C@@H]1O
cat: inactive

molecule: COc1cc(C)c(Sc2cnc(NC(=O)c3ccc(CNC(C)C(C)(C)C)cc3)s2)cc1C(=O)N1CCN(C(C)=O)CC1 (configuration not stated)
cat: active

molecule: COC[C@H](NC(=O)c1cnc(C)s1)C(=O)N[C@@H](COC)C(=O)N[C@@H](Cc1ccccc1)C(=O)[C@@]1(C)CO1
cat: active
